- TGT: CDK1/Cyclin B1 (Homo sapiens, UniProt P06493)
- Construct: GST
- Sequence (P06493 whole entry): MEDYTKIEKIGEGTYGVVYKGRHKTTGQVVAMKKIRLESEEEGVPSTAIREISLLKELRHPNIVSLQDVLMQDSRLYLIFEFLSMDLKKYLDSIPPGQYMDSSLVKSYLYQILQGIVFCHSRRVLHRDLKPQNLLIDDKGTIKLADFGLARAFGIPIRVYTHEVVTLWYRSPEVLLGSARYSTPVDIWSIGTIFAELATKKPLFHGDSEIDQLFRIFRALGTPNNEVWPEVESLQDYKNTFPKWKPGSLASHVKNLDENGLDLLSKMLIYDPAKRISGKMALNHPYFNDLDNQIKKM
- Sequence (P14635 whole entry partner): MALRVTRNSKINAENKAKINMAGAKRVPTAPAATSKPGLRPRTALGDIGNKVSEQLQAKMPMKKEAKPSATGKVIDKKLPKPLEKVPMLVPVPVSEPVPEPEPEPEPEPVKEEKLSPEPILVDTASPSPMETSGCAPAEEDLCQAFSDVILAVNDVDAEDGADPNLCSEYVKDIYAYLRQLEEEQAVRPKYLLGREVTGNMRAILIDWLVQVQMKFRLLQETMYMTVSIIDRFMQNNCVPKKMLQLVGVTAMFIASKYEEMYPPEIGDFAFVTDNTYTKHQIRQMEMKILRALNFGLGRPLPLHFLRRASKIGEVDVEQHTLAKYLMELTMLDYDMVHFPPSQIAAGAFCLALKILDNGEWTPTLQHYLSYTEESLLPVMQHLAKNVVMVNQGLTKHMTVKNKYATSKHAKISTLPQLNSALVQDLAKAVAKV
- RUN_DESCRIPTION: CDK1/Cyclin B1 enzymatic phosphorylation assay (Caliper mobility shift)
- CONDITION_SET: read-out: Enzyme CDK1/cyclin B1 IC50
pIC50: −log10 of the molar value.
PROPERTY_NAME: pIC50

Example results:
For the compound CC(C)c1cc(Nc2cnc3cnn([C@@H](C)c4cccnc4)c3n2)n[nH]1 [Example 29] , give its reported pIC50.
6.80

Specify reported pIC50 for the compound shown: CCc1cc(Nc2cnc3cnn(CC4CCOCC4)c3n2)n[nH]1 [Example 37]
6.27

Annotate the compound Fc1cncc(Cn2ncc3ncc(Nc4cc(C5COC5)[nH]n4)nc32)c1 [Example 50] with its measured pIC50.
5.51

(I) C[C@@H](c1ccccc1F)n1ncc2ncc(Nc3cc(C4COC4)[nH]n3)nc21 [Example 52]
(II) c1nc2cnn(C[C@H]3[C@@H]4COC[C@@H]43)c2nc1Nc1cc(C2COC2)[nH]n1 [Example 16]
Hey, which is lower on measured pIC50, I or II ? Field: selected label. Fill in the label of the entry you choose.
II

(1) Fc1ncccc1Cn1ncc2ncc(Nc3cc(C4COC4)[nH]n3)nc21 [Example 49]
(2) c1cncc(Cn2ncc3ncc(Nc4cc(C5COC5)[nH]n4)nc32)c1 [Example 34]
Larger number for pIC50: 1 , or 2 ? Bench note: the answer is the label of the chosen record.
1
(1: 6.19, 2: 5.72)

(I) CC(C)c1cc(Nc2cnc3cnn([C@H](C)c4cccnc4)c3n2)n[nH]1 [Example 40]
(II) C[C@@H](c1cccnc1)n1ncc2ncc(Nc3cc(C4CC4)[nH]n3)nc21 [Example 31]
(III) C[C@@H](c1cccnc1)n1ncc2ncc(Nc3cc(C4COC4)[nH]n3)nc21 [Example 33]
(IV) C[C@@H](c1cccnc1Cl)n1ncc2ncc(Nc3cc(C#N)[nH]n3)nc21 [Example 24]
// ascending sort on recorded pIC50 Enter labels, ranked according to the request.
IV, III, I, II
(IV: 5.48, III: 5.85, I: 7.03, II: 7.24)

(a) CC(C)c1cc(Nc2cnc3cnn(CC4CCNCC4)c3n2)n[nH]1 [Example 62]
(b) C[C@@H](c1cc(Nc2cnc3cnn(CC4CCOCC4)c3n2)n[nH]1)C(F)F (single isomer, unassigned) [Example 21]
Of the pair a and b , name the member with the lesser recorded pIC50. // output: label of the selected item
a
(a: 5.71, b: 6.23)

(P) CC(C)c1cc(Nc2cnc3cnn(C[C@@H](C)CO)c3n2)n[nH]1 [Example 60]
(Q) C[C@@H](c1ccccc1)n1ncc2ncc(Nc3cc(C4COC4)[nH]n3)nc21 [Example 42]
// compare: P vs Q , metric pIC50, want the smaller Give the label of your selection.
P
(P: 5.80, Q: 6.23)

(P) CC(C)c1cc(Nc2cnc3cnn(C[C@H]4CCOC4)c3n2)n[nH]1 (single isomer, unassigned) [Example 11]
(Q) CC(=O)N1CCC[C@H](n2ncc3ncc(Nc4cc(C(C)C)[nH]n4)nc32)C1 [Example 59]
For the pair P and Q , which member has the lower pIC50 number? Which one? Tell me its label.
Q

* * *

- TGT: CDK1/Cyclin B1 (Homo sapiens, UniProt P06493)
- Construct: GST
- RUN_DESCRIPTION: CDK1/Cyclin B1 enzymatic phosphorylation assay (Caliper mobility shift)
- CONDITION_SET: read-out: Enzyme CDK1/cyclin B1 IC50
PROPERTY_NAME: IC50 (nM)

// known answers, use as guide
Item `Cc1cc(Nc2cnc3cnn([C@H]4CC[C@H](O)CC4)c3n2)n[nH]1` : provide IC50
7650

Please give the documented IC50 of `C[C@@H](c1cccnc1)n1ncc2ncc(Nc3cc(C(F)F)[nH]n3)nc21`
6030

Identify measured IC50 corresponding to `Cc1nn(Cc2cccnc2)c2nc(Nc3cc(C(C)C)[nH]n3)cnc12`
234

Give the value of IC50 reported for the following: `Fc1ccc(Cn2ncc3ncc(Nc4cc(C5COC5)[nH]n4)nc32)cn1`
1840

Provide only the value of recorded IC50 for `Fc1ccc(Cn2ncc3ncc(Nc4cc(C5COC5)[nH]n4)nc32)cc1`
1380

(P) CC[C@H]([C@H](C)O)n1ncc2ncc(Nc3cc(C(C)C)[nH]n3)nc21 (single isomer, unassigned)
(Q) CC(C)c1cc(Nc2cnc3cnn(CC4CCN(C)CC4)c3n2)n[nH]1
Could you determine which record has the numerically smaller IC50? Candidates: P and Q Respond with the label that goes with your answer.
Q
(Q: 2080 nM, P: 3130 nM)

* * *

- TGT: CDK1/Cyclin B1 (Homo sapiens, UniProt P06493)
- Construct: GST
- RUN_DESCRIPTION: CDK1/Cyclin B1 enzymatic phosphorylation assay (Caliper mobility shift)
- CONDITION_SET: read-out: Enzyme CDK1/cyclin B1 IC50
- Method: Reactions proceeded until between 10% to 20% total peptides were phosphorylated at room temperature (25° C.) and were terminated with 35 mM 2,2′,2″,2′″-(ethane-1,2-diyldinitrilo)tetraacetic acid (EDTA). Product was detected using the Caliper mobility shift detection method where the phosphorylated peptide (product) and substrate were electrophoretically separated and measured. Percent activity was plotted against log concentration of compound and points to generate an apparent IC50.
PROPERTY_NAME: IC50 (nM)

Guide cases for IC50, answers given:
Using known records, supply IC50 for C[C@H](c1cc(Nc2cnc3cnn(CC4CCOCC4)c3n2)n[nH]1)C(F)F (single isomer, unassigned)
1010

Give IC50 for `Cc1nc2cnn(Cc3cccnc3)c2nc1Nc1cc(C(C)C)[nH]n1`
3230

(1) CC(C)c1cc(Nc2cnc3cnn(C[C@@H]4CCOC4)c3n2)n[nH]1 (single isomer, unassigned)
(2) Cc1cc(Nc2cnc3c(Cl)nn([C@@H](C)c4cccnc4F)c3n2)n[nH]1
(3) COc1ncccc1[C@H](C)n1ncc2ncc(Nc3cc(C)[nH]n3)nc21
(4) CC(C)c1cc(Nc2cnc3cnn([C@H]4CC[C@H](O)CC4)c3n2)n[nH]1
(5) CCc1cc(Nc2cnc3cnn([C@@H](C)c4cccnc4)c3n2)n[nH]1
# ascending order, key=IC50 Quick reminder: the answer is the labels in the order asked.
1, 4, 5, 3, 2

* * *

- TGT: CDK1/Cyclin B1 (Homo sapiens, UniProt P06493)
- Construct: GST
- RUN_DESCRIPTION: CDK1/Cyclin B1 enzymatic phosphorylation assay (Caliper mobility shift)
- CONDITION_SET: read-out: Enzyme CDK1/cyclin B1 IC50
pIC50: −log10 of the molar value.
PROPERTY_NAME: pIC50

(A) CC(C)c1cc(Nc2cnc3cnn(C[C@@H]4CCCOC4)c3n2)n[nH]1 (single isomer, unassigned)
(B) CC[C@@H]([C@H](C)O)n1ncc2ncc(Nc3cc(C(C)C)[nH]n3)nc21 (single isomer, unassigned)
(C) O[C@H]1CC[C@H](n2ncc3ncc(Nc4cc(C5COC5)[nH]n4)nc32)CC1
Rank the listed compounds according to pIC50, from the largest value downward. Rank them, then answer with their labels in that order.
A, C, B
(A: 6.83, C: 6.29, B: 6.04)
